The reported numbers originate from patent US20250325485A1.

- Protocol description: FIG. 10
Counter-ions that a name gives are not always drawn. Peptide text beside a SMILES is read from it. * marks the point of attachment. For = O=C*
Assay readout: After 2 weeks @ 40°C | Aspartimide (area%)

Observe how each entry below is paired with its result.
Compound	Observed measurement
CSCC[C@H](NC=O)C(=O)N[C@@H](CC(=O)O)C(=O)NCC(=O)N[C@@H](CS)C(=O)N[C@@H](CCC(=O)O)C(=O)N[C@@H](CC(C)C)C(=O)O [DEA Di salt] (For-MDGCEL-OH)	4,98 area%
CSCC[C@H](NC=O)C(=O)N[C@@H](CC(=O)O)C(=O)NCC(=O)N[C@@H](CS)C(=O)N[C@@H](CCC(=O)O)C(=O)N[C@@H](CC(C)C)C(=O)O [NH3 Tri salt] (For-MDGCEL-OH)	4,10 area%
CSCC[C@H](NC=O)C(=O)N[C@@H](CC(=O)O)C(=O)NCC(=O)N[C@@H](CS)C(=O)N[C@@H](CCC(=O)O)C(=O)N[C@@H](CC(C)C)C(=O)O [NMG Di salt] (For-MDGCEL-OH)	3,85 area%

# return recorded After 2 weeks @ 40°C | Aspartimide (area%) for input CSCC[C@H](NC=O)C(=O)N[C@@H](CC(=O)O)C(=O)NCC(=O)N[C@@H](CS)C(=O)N[C@@H](CCC(=O)O)C(=O)N[C@@H](CC(C)C)C(=O)O [NH3 Di salt] (For-MDGCEL-OH)
4,45 area%

Please list After 2 weeks @ 40°C | Aspartimide (area%) recorded for the compound CSCC[C@H](NC=O)C(=O)N[C@@H](CC(=O)O)C(=O)NCC(=O)N[C@@H](CS)C(=O)N[C@@H](CCC(=O)O)C(=O)N[C@@H](CC(C)C)C(=O)O [NMG Tri salt] (For-MDGCEL-OH)
1,76 area%

// fetch After 2 weeks @ 40°C | Aspartimide (area%) given entry CSCC[C@H](NC=O)C(=O)N[C@@H](CC(=O)O)C(=O)NCC(=O)N[C@@H](CS)C(=O)N[C@@H](CCC(=O)O)C(=O)N[C@@H](CC(C)C)C(=O)O [TRO Di salt] (For-MDGCEL-OH)
2,75 area%

Return value of After 2 weeks @ 40°C | Aspartimide (area%) for input CSCC[C@H](NC=O)C(=O)N[C@@H](CC(=O)O)C(=O)NCC(=O)N[C@@H](CS)C(=O)N[C@@H](CCC(=O)O)C(=O)N[C@@H](CC(C)C)C(=O)O [HIS Tri salt] (For-MDGCEL-OH) , no commentary.
1,97 area%

Look up After 2 weeks @ 40°C | Aspartimide (area%) of CSCC[C@H](NC=O)C(=O)N[C@@H](CC(=O)O)C(=O)NCC(=O)N[C@@H](CS)C(=O)N[C@@H](CCC(=O)O)C(=O)N[C@@H](CC(C)C)C(=O)O [LYS Di salt] (For-MDGCEL-OH) and report it.
2,50 area%

Read off the recorded After 2 weeks @ 40°C | Aspartimide (area%) for CSCC[C@H](NC=O)C(=O)N[C@@H](CC(=O)O)C(=O)NCC(=O)N[C@@H](CS)C(=O)N[C@@H](CCC(=O)O)C(=O)N[C@@H](CC(C)C)C(=O)O [DEA Tri salt] (For-MDGCEL-OH)
5,78 area%

###

Here, each record is paired with measured After 4 weeks @ 40°C | HPLC purity (area%) data.
- Protocol description: FIG. 10
Counter-ions that a name gives are not always drawn. Peptide text beside a SMILES is read from it. * marks the point of attachment. For = O=C*

Compound	Observed measurement
CSCC[C@H](NC=O)C(=O)N[C@@H](CC(=O)O)C(=O)NCC(=O)N[C@@H](CS)C(=O)N[C@@H](CCC(=O)O)C(=O)N[C@@H](CC(C)C)C(=O)O [LYS Tri salt] (For-MDGCEL-OH)	84,97 area%
CSCC[C@H](NC=O)C(=O)N[C@@H](CC(=O)O)C(=O)NCC(=O)N[C@@H](CS)C(=O)N[C@@H](CCC(=O)O)C(=O)N[C@@H](CC(C)C)C(=O)O [NH3 Di salt] (For-MDGCEL-OH)	89,75 area%
CSCC[C@H](NC=O)C(=O)N[C@@H](CC(=O)O)C(=O)NCC(=O)N[C@@H](CS)C(=O)N[C@@H](CCC(=O)O)C(=O)N[C@@H](CC(C)C)C(=O)O [NMG Di salt] (For-MDGCEL-OH)	91,23 area%
CSCC[C@H](NC=O)C(=O)N[C@@H](CC(=O)O)C(=O)NCC(=O)N[C@@H](CS)C(=O)N[C@@H](CCC(=O)O)C(=O)N[C@@H](CC(C)C)C(=O)O [DEA Di salt] (For-MDGCEL-OH)	87,11 area%
CSCC[C@H](NC=O)C(=O)N[C@@H](CC(=O)O)C(=O)NCC(=O)N[C@@H](CS)C(=O)N[C@@H](CCC(=O)O)C(=O)N[C@@H](CC(C)C)C(=O)O [TRO Di salt] (For-MDGCEL-OH)	93,87 area%

Please turn your attention to the following entry.
Consider the compound CSCC[C@H](NC=O)C(=O)N[C@@H](CC(=O)O)C(=O)NCC(=O)N[C@@H](CS)C(=O)N[C@@H](CCC(=O)O)C(=O)N[C@@H](CC(C)C)C(=O)O [Na Tri salt] (For-MDGCEL-OH) . State its measured After 4 weeks @ 40°C | HPLC purity (area%).
60,34 area%

###

- Protocol description: FIG. 10
Counter-ions that a name gives are not always drawn. Peptide text beside a SMILES is read from it. * marks the point of attachment. For = O=C*
Measured After 4 weeks @ 40°C | Dimer (area%), listed per entry for reference.

Molecule	Observed measurement
CSCC[C@H](NC=O)C(=O)N[C@@H](CC(=O)O)C(=O)NCC(=O)N[C@@H](CS)C(=O)N[C@@H](CCC(=O)O)C(=O)N[C@@H](CC(C)C)C(=O)O [LYS Di salt] (For-MDGCEL-OH)	0,55 area%
CSCC[C@H](NC=O)C(=O)N[C@@H](CC(=O)O)C(=O)NCC(=O)N[C@@H](CS)C(=O)N[C@@H](CCC(=O)O)C(=O)N[C@@H](CC(C)C)C(=O)O [Na Tri salt] (For-MDGCEL-OH)	16,80 area%

Give the reported After 4 weeks @ 40°C | Dimer (area%) for this molecule. CSCC[C@H](NC=O)C(=O)N[C@@H](CC(=O)O)C(=O)NCC(=O)N[C@@H](CS)C(=O)N[C@@H](CCC(=O)O)C(=O)N[C@@H](CC(C)C)C(=O)O [DEA Di salt] (For-MDGCEL-OH)
3,10 area%

###

- Protocol description: FIG. 10
Where a name gives a salt, the structure may show the parent alone. Peptide text beside a SMILES is read from it. * marks the point of attachment. For = O=C*
Assay readout: After 2 weeks @ 40°C | Dimer (area%)

Molecule	After 2 weeks @ 40°C | Dimer (area%)
CSCC[C@H](NC=O)C(=O)N[C@@H](CC(=O)O)C(=O)NCC(=O)N[C@@H](CS)C(=O)N[C@@H](CCC(=O)O)C(=O)N[C@@H](CC(C)C)C(=O)O [TRO Tri salt] (For-MDGCEL-OH)	0,63 area%
CSCC[C@H](NC=O)C(=O)N[C@@H](CC(=O)O)C(=O)NCC(=O)N[C@@H](CS)C(=O)N[C@@H](CCC(=O)O)C(=O)N[C@@H](CC(C)C)C(=O)O [NH3 Tri salt] (For-MDGCEL-OH)	2,95 area%

Hello, please tell me recorded After 2 weeks @ 40°C | Dimer (area%) for this one: CSCC[C@H](NC=O)C(=O)N[C@@H](CC(=O)O)C(=O)NCC(=O)N[C@@H](CS)C(=O)N[C@@H](CCC(=O)O)C(=O)N[C@@H](CC(C)C)C(=O)O [DEA Tri salt] (For-MDGCEL-OH)
8,10 area%

Look up and state reported After 2 weeks @ 40°C | Dimer (area%) for CSCC[C@H](NC=O)C(=O)N[C@@H](CC(=O)O)C(=O)NCC(=O)N[C@@H](CS)C(=O)N[C@@H](CCC(=O)O)C(=O)N[C@@H](CC(C)C)C(=O)O [NH3 Di salt] (For-MDGCEL-OH)
0,38 area%

###

- Protocol description: pKa by potentiometric titration (Sirius T3)
- Type: physicochemical
- Conditions: ISA water, CYS thiol (acidic); 25° C.; read-out: pKa [measured]
Peptide text beside a SMILES is read from it. * marks the point of attachment. For = O=C*
Assay readout: pKa

Please report pKa for the following compound: CSCC[C@H](NC=O)C(=O)N[C@@H](CC(=O)O)C(=O)NCC(=O)N[C@@H](CS)C(=O)N[C@@H](CCC(=O)O)C(=O)N[C@@H](CC(C)C)C(=O)O [Foxy-5, For-Met-Asp-Gly-Cys-Glu-Leu-OH] (For-MDGCEL-OH)
9.01
